Study target: Rho-associated protein kinase 1 (Homo sapiens); note: in the data inactive means no Kd found up to 30 µM
Sequence (Q13464 whole entry): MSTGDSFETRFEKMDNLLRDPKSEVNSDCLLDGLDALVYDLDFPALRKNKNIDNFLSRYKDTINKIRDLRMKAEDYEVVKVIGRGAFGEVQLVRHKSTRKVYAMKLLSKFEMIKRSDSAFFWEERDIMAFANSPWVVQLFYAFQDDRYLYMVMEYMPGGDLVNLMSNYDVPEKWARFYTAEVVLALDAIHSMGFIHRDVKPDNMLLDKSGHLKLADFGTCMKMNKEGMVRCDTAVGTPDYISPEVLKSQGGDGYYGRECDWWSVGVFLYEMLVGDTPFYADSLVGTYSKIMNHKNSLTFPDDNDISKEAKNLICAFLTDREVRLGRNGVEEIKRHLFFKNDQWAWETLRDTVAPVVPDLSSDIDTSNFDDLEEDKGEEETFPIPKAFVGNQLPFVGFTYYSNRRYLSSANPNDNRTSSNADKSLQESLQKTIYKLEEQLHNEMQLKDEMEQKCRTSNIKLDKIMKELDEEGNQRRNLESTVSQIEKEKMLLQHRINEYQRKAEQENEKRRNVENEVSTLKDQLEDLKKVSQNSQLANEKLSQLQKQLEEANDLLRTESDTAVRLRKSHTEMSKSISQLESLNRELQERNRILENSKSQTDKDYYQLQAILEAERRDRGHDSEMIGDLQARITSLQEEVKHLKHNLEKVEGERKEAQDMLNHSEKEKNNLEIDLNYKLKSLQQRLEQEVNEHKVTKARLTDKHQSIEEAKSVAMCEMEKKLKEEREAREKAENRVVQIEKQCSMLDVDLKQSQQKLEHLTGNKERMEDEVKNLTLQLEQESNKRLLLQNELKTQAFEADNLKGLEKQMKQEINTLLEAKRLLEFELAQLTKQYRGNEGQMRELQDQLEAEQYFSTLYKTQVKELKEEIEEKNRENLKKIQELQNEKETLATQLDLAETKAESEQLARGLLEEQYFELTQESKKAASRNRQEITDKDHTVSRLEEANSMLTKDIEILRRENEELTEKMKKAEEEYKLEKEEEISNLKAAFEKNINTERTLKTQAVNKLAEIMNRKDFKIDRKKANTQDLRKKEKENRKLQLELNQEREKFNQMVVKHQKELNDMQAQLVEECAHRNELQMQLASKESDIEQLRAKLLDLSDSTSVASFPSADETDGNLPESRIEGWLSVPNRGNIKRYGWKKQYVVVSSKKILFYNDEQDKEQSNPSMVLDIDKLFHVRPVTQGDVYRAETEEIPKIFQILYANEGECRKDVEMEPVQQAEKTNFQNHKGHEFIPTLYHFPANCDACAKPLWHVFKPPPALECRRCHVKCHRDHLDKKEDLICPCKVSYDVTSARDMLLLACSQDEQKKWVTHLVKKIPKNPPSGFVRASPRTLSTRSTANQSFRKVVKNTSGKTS
Calls of active or inactive are those of the source.
Could you please pick one outcome from this set? T = active, F = inactive

>  <Compound>
CNC(=O)c1ccc(-c2cnc3ncc(Cc4ccc5ncccc5c4)n3n2)cc1F

>  <Category label>
F

$$$$
>  <Compound>
CN1N=C(N)c2cn([C@@H]3O[C@H](COP(=O)(O)O)[C@@H](O)[C@H]3O)c3ncnc1c23 [TRICIRIBINE PHOSPHATE]

>  <Category label>
F

$$$$
>  <Compound>
Cc1cc2c(F)c(Oc3ncnn4cc(OC[C@@H](C)OC(=O)[C@H](C)N)c(C)c34)ccc2[nH]1 [BRIVANIB ALANINATE]

>  <Category label>
F

$$$$
>  <Compound>
CO[C@H]1C[C@@H]2CC[C@@H](C)[C@@](O)(O2)C(=O)C(=O)N2CCCC[C@H]2C(=O)O[C@H]([C@H](C)C[C@@H]2CC[C@@H](OCCO)[C@H](OC)C2)CC(=O)[C@H](C)/C=C(\C)[C@@H](O)[C@@H](OC)C(=O)[C@H](C)C[C@H](C)/C=C/C=C/C=C/1C

>  <Category label>
F

$$$$

# input Returns: the outcome recorded for `CCS(=O)(=O)N1CC(CC#N)(n2cc(-c3ncnc4[nH]ccc34)cn2)C1` in this assay.
# output T

# input Test call, this compound: `CNC(=O)c1cc(Oc2ccc(NC(=O)Nc3ccc(Cl)c(C(F)(F)F)c3)c(F)c2)ccn1`
# output F

###

Study target: Serine/threonine-protein kinase 10 (Homo sapiens, UniProt O94804); note: in the data inactive means no Kd found up to 30 µM
Sequence (O94804 whole entry): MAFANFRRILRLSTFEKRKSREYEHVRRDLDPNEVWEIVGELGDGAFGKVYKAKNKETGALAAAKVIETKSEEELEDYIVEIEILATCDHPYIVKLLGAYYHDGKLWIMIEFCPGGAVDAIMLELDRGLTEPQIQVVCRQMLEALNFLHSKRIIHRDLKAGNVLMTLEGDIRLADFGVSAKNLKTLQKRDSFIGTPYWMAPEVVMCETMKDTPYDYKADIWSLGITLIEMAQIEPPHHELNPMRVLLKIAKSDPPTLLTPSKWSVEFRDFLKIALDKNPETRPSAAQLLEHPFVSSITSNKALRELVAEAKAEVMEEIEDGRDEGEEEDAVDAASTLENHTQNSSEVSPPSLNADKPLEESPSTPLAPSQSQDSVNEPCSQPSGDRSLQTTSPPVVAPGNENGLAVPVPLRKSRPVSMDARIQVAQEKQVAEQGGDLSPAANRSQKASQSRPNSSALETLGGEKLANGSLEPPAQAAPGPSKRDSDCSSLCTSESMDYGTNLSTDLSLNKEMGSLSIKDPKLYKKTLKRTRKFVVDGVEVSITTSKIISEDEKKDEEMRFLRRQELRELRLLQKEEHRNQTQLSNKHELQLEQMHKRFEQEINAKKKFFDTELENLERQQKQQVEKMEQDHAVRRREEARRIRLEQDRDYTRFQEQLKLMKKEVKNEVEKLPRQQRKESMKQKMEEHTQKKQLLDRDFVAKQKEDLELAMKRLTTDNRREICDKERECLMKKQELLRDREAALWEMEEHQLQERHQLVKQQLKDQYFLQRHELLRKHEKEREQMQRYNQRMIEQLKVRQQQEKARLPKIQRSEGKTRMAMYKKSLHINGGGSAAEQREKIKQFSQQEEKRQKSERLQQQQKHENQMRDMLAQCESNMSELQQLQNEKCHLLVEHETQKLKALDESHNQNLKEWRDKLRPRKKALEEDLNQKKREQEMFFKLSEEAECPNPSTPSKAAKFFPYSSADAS
Active and inactive are the calls of the source.
Classes to choose from: active, inactive

Some solved cases for reference:
>  <Compound>
Cc1c(F)cc(C(=O)NC2CC2)cc1-c1ccc(C(=O)NCC(C)(C)C)cn1

>  <Study target>
Serine/threonine-protein kinase 10 (Homo sapiens, UniProt O94804); note: in the data inactive means no Kd found up to 30 µM

>  <Category label>
inactive

$$$$
>  <Compound>
CO[C@H]1C[C@@H]2CC[C@@H](C)[C@@](O)(O2)C(=O)C(=O)N2CCCC[C@H]2C(=O)O[C@H]([C@H](C)C[C@@H]2CC[C@@H](OCCO)[C@H](OC)C2)CC(=O)[C@H](C)/C=C(\C)[C@@H](O)[C@@H](OC)C(=O)[C@H](C)C[C@H](C)/C=C/C=C/C=C/1C

>  <Study target>
Serine/threonine-protein kinase 10 (Homo sapiens, UniProt O94804); note: in the data inactive means no Kd found up to 30 µM

>  <Category label>
inactive

$$$$
>  <Compound>
OCCn1cc(-c2cnc3nnn(Cc4ccc5ncccc5c4)c3n2)cn1

>  <Study target>
Serine/threonine-protein kinase 10 (Homo sapiens, UniProt O94804); note: in the data inactive means no Kd found up to 30 µM

>  <Category label>
inactive

$$$$
>  <Compound>
COc1cc(OC)c(/C=C/S(=O)(=O)Cc2ccc(OC)c(NCC(=O)O)c2)c(OC)c1

>  <Study target>
Serine/threonine-protein kinase 10 (Homo sapiens, UniProt O94804); note: in the data inactive means no Kd found up to 30 µM

>  <Category label>
inactive

$$$$
>  <Compound>
CN1N=C(N)c2cn([C@@H]3O[C@H](COP(=O)(O)O)[C@@H](O)[C@H]3O)c3ncnc1c23 [TRICIRIBINE PHOSPHATE]

>  <Study target>
Serine/threonine-protein kinase 10 (Homo sapiens, UniProt O94804); note: in the data inactive means no Kd found up to 30 µM

>  <Category label>
inactive

$$$$

# input Please state the recorded outcome for this compound: `COc1cc(N2CCC(N3CCN(C)CC3)CC2)ccc1Nc1ncnc(Nc2ccccc2S(=O)(=O)C(C)C)n1`
# output active

# input Could you kindly confirm the outcome this assay logged for `Cn1ncc(Cl)c1-c1cc(C(=O)N[C@H](CN)Cc2cccc(F)c2)sc1Cl` ?
# output inactive

# input I would be grateful if you could indicate the recorded call for `O=c1sn(-c2cccc3ccccc23)c(=O)n1Cc1ccccc1` .
# output inactive

###

Calls of active or inactive are those of the source.
In what follows, each item is paired with its Kd for Cyclin-dependent kinase 1 (Homo sapiens).

Below, 5 compounds whose answers are already recorded.
>  <Compound>
C[C@@H](c1ccc2nccn2c1)n1nnc2ncc(-c3cnn(C)c3)nc21

>  <Kd>
> 30 µM (inactive)

$$$$
>  <Compound>
CC(=O)Nc1cccc(-n2c(=O)n(C3CC3)c(=O)c3c(Nc4ccc(I)cc4F)n(C)c(=O)c(C)c32)c1

>  <Kd>
> 30 µM (inactive)

$$$$
>  <Compound>
COCCNCc1ccc(-c2cc3nccc(Oc4ccc(NC(=S)NC(=O)Cc5ccc(F)cc5)cc4F)c3s2)nc1

>  <Kd>
> 30 µM (inactive)

$$$$
>  <Compound>
COc1cc2nccc(Oc3ccc(NC(=O)Nc4cc(C)on4)c(Cl)c3)c2cc1OC

>  <Kd>
> 30 µM (inactive)

$$$$
>  <Compound>
N[C@@H]1CCCN(c2c(/C=C3\SC(=O)NC3=O)cccc2-c2ccccc2)C1

>  <Kd>
> 30 µM (inactive)

$$$$

# input Return reported Kd for target or system Cyclin-dependent kinase 1 (Homo sapiens), item `O=C(c1ccc(F)c(F)c1Nc1ccc(I)cc1F)N1CC(O)([C@@H]2CCCCN2)C1` . Note: in the data inactive means no Kd found up to 30 µM.
# output > 30 µM (inactive)

# input Given `COc1ccc(-c2ccc3c(N4CCOC[C@@H]4C)nc(N4CCOC[C@@H]4C)nc3n2)cc1CO` , report its Kd on Cyclin-dependent kinase 1 (Homo sapiens).
# Sequence (P06493 whole entry): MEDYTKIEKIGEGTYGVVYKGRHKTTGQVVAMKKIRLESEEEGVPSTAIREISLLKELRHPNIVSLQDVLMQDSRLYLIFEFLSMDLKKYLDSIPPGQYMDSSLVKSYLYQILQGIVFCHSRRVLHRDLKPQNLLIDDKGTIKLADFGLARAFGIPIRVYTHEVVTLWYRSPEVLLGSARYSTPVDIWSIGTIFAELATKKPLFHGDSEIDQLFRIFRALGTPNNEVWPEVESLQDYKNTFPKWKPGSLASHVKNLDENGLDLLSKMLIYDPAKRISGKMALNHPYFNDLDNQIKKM
# output > 30 µM (inactive)

# input Using Cyclin-dependent kinase 1 (Homo sapiens) as the test system, report measured Kd of Cc1cc2c(F)c(Oc3ncnn4cc(OC[C@@H](C)OC(=O)[C@H](C)N)c(C)c34)ccc2[nH]1 [BRIVANIB ALANINATE] .
# output > 30 µM (inactive)

# input Look up Cyclin-dependent kinase 1 (Homo sapiens) data: Kd of `Cc1cc(-c2cc(O)ccc2Cl)cc2nnc(Nc3ccc(OCCN4CCCC4)cc3)nc12` , then report it.
# output > 30 µM (inactive)

# input Provide Kd, recorded with Cyclin-dependent kinase 1 (Homo sapiens), of `CCn1c(-c2nonc2N)nc2c(C#CC(C)(C)O)ncc(OC[C@H]3CCCNC3)c21`
# output > 30 µM (inactive)

# input # lookup: Cyclin-dependent kinase 1 (Homo sapiens) Kd, key = `Cc1ccc(S(=O)(=O)Nc2nc3ccccc3nc2Nc2ccc3nsnc3c2)cc1`
# output > 30 µM (inactive)

# input Write Kd of `Cn1cc(-c2ccc3nnc(C(F)(F)c4ccc5ncccc5c4)n3n2)cn1` ; system used: Cyclin-dependent kinase 1 (Homo sapiens); note: in the data inactive means no Kd found up to 30 µM
# output > 30 µM (inactive)

# input Lab note: record Kd of `CCCS(=O)(=O)Nc1ccc(F)c(C(=O)c2c[nH]c3ncc(-c4ccc(Cl)cc4)cc23)c1F` tested on Cyclin-dependent kinase 1 (Homo sapiens). Note: in the data inactive means no Kd found up to 30 µM.
# output > 30 µM (inactive)

# input Quote Kd with test system Cyclin-dependent kinase 1 (Homo sapiens) for `O=C1NC(=O)/C(=C/c2ccc3nccc(-c4ccncc4)c3c2)S1`; note: in the data inactive means no Kd found up to 30 µM
# output > 30 µM (inactive)

# input Provide Kd, tested on Cyclin-dependent kinase 1 (Homo sapiens), for `CN1CC[C@@H](c2c(O)cc(O)c3c(=O)cc(-c4ccccc4Cl)oc23)[C@@H]1CO` . Note: in the data inactive means no Kd found up to 30 µM.
# output 4.23 µM (active)

###

Study target: Ephrin type-B receptor 3 (Homo sapiens); note: in the data inactive means no Kd found up to 30 µM
Sequence (P54753 whole entry): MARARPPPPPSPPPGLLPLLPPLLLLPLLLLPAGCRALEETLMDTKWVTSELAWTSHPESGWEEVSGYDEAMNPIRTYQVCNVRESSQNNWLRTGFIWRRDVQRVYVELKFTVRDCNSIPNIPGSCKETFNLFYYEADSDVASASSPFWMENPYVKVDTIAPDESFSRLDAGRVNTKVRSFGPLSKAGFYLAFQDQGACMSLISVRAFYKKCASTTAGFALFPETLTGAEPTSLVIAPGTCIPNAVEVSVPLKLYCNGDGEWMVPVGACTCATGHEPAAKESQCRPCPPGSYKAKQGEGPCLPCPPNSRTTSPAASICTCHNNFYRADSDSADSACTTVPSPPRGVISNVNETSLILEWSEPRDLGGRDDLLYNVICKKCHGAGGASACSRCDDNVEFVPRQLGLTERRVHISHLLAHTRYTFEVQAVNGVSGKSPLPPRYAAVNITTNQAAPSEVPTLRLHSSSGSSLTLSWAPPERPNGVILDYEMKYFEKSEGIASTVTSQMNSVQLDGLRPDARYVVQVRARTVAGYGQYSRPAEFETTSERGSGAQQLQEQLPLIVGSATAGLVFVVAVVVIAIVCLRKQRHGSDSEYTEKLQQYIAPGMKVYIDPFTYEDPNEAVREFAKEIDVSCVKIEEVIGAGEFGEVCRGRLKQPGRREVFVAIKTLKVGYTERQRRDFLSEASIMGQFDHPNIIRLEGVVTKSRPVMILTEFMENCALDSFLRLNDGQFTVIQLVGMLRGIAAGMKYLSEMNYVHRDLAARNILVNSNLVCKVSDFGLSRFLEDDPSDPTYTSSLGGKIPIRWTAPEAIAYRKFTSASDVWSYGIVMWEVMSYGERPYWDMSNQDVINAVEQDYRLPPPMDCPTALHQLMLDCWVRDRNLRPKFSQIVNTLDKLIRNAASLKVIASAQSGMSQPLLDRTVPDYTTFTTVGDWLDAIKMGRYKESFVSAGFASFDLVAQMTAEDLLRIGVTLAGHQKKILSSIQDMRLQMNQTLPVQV
Activity calls are given as the source filed them.
Pick from 1 (yes) = active, 0 (no) = inactive when you respond.

>  <Molecule>
CC(C)Nc1cc(-c2c[nH]c(C(=O)N[C@H](CO)c3cccc(Cl)c3)c2)c(Cl)cn1

>  <Category label>
0 (no)

$$$$

# input Hi, sorry to bother you, what did the test record for `CO[C@H]1C[C@@H]2CC[C@@H](C)[C@@](O)(O2)C(=O)C(=O)N2CCCC[C@H]2C(=O)O[C@H]([C@H](C)C[C@@H]2CC[C@@H](OCCO)[C@H](OC)C2)CC(=O)[C@H](C)/C=C(\C)[C@@H](O)[C@@H](OC)C(=O)[C@H](C)C[C@H](C)/C=C/C=C/C=C/1C` ?
# output 0 (no)

# input Test call for this molecule, please: `COc1ccc(-c2ccc3c(N4CCOC[C@@H]4C)nc(N4CCOC[C@@H]4C)nc3n2)cc1CO`
# output 0 (no)

# input Could you check what this test reported for `O=c1sn(-c2cccc3ccccc23)c(=O)n1Cc1ccccc1` ?
# output 0 (no)

# input Hello, I am checking results. What call was entered for O=C(Nc1ccc(-c2ccnc(Nc3ccc(N4CCOCC4)cc3)n2)cc1)C1CCCN1 (configuration not stated) ?
# output 0 (no)

# input Check the results log: what was the call for `Cn1ncc(Cl)c1-c1cc(C(=O)N[C@H](CN)Cc2cccc(F)c2)sc1Cl` ?
# output 0 (no)

# input Lab log entry: `CCN1CCN(Cc2ccc(-c3cc4c(N[C@H](C)c5ccccc5)ncnc4[nH]3)cc2)CC1` — outcome as called in the assay?
# output 0 (no)

# input Please let me know the test result on file for `COc1cc2nccc(Oc3ccc(NC(=O)NC4CC4)c(Cl)c3)c2cc1C(N)=O` .
# output 0 (no)

# input Hi, sorry to bother you, what did the test record for `Cc1ccc(S(=O)(=O)Nc2nc3ccccc3nc2Nc2ccc3nsnc3c2)cc1` ?
# output 0 (no)
